# testedOn: T1, human PD-L1-ECD/His (human, UniProt Q9NZQ7 19-238)
# T1 construct: Expressed in 293-F cells; also called PD-L1/His; human PD-L1/His
# assayNotes: SPR (BIAcore T-200), human PD-L1/His on CM5 chip, Fab injected
Measured Kd, listed per entry.
Kindly report the value followed by its unit.

Previously resolved entries follow.
Given item hu333-3H2 Fab (Fab, V domains shown, Human Fab format; constant parts not restated) VH: EVQLVESGGGLVQPGGSLRLSCAVSGFSLTSYGVHWVRQAPGKGLEWVAVIWAGGSTNYADSVKGRFTISKDTSKNTVYLQMNSLRAEDTAVYYCAKPYGNSAMDYWGQGTLVTVSS VL: DIQMTQSPSSLSASVGDRVTITCKASQDVGIVVAWYQQKPGKAPKLLIYWASIRHTGVPSRFSGSGSGTEFTLTISSLQPDDFATYYCQQYSNYPLYTFGQGTKVEIK , the value recorded as its Kd is 34.9 pM

Per the record, hu333-3C2 Fab (Fab, V domains shown, Human Fab format; constant parts not restated) VH: EVQLVESGGGLVQPGGSLRLSCAVSGFSLTSYGVHWVRQAPGKGLEWVAVIWAGGSTNYADSVKGRFTISKDNSKNTVYLQMNSLRAEDTAVYYCAKPYGNSAMDYWGQGTLVTVSS VL: DIQMTQSPSSLSASVGDRVTITCKASQDVGIVVAWYQQKPGKAPKLLIYWASIRHTGVPSRFSGSGSGTEFTLTISSLQPDDFATYYCQQYSNYPLYTFGQGTKVEIK has Kd of 8.09 pM

Looking up hu333-4A2 Fab (Fab, V domains shown, Human IgG1 Fab format: Vh fused to human IgG1-CH1 with C-terminal His6 tag, Vk fused to the constant region of kappa chain) VH: EVQLVESGGGLVQPGGSLRLSCAVSGFSLTSYGVHWVRQAPGKGLEWVAVIWAGGSTNYVDSVKGRFTISKDNAKNTVYLQMNSLRAEDTAVYYCAKPYGTSAMDYWGQGTLVTVSS VL: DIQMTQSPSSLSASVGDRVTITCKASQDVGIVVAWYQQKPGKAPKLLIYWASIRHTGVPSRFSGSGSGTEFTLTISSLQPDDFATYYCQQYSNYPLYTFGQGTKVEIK , I see its Kd listed as 2.65 pM

Next:
Short answer for hu333-3A2 Fab (Fab, V domains shown, Human Fab format; constant parts not restated) VH: EVQLVESGGGLVQPGGSLRLSCAVSGFSLTSYGVHWVRQAPGKGLEWVAVIWAGGSTNYVDSVKGRLTISKDNAKNTVYLQMNSLRAEDTAVYYCAKPYGNSAMDYWGQGTLVTVSS VL: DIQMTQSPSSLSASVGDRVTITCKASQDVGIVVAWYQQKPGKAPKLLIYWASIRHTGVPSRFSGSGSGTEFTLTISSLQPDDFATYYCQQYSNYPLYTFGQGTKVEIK : Kd was 0.17 pM
